Molecular target: SARS-CoV-2 spike protein on pseudotyped lentivirus (Wuhan Reference Pseudovirus) (SARS-CoV-2, UniProt P0DTC2 14-1273)
Assay: cell-based or functional assay
RECORDED METRIC: infectivity % under 10 ug/mL VHH treatment (%)
Numbers only; they are read as %.

## Input // returns reported infectivity % under 10 ug/mL VHH treatment for input PP900 MBP-5HVZ-R5a-F2-H6 (VHH, Form: Dimer) VHH: QVQLVESGGGLVQPGGSLRLSCAASGSISSIEAMSWFRQAPGKQREGVATMASGGDTSYADSVKGRFTISRDNAKNTVYLQMNSLKPEDTAVYYCAAQTYRPDTWGRYTFWGQGTQVTVSS
## Output 18.3

## Input // returns reported infectivity % under 10 ug/mL VHH treatment for input PP1104 MBP-5HVZ-PAPA-RN-19-H6 (VHH, Form: Dimer) VHH: QVQLVESGGGLVQPGGSLRLSCAASGIDDSIGAMHWFRQAPGKGREFVAALSGTGTTSYADSVKGRFTISRDNAKNTVYLQMNSLKPEDTAVYYCAAAFPAGGDYWGQGTQVTVSS
## Output 73.8

## Input // returns reported infectivity % under 10 ug/mL VHH treatment for input PP1100 MBP-5HVZ-PAPA-RN-14-H6 (VHH, Form: Dimer) VHH: QVQLVESGGGLVQPGGSLRLSCAASGENFSGNLVHWFRQAPGKAREGVATVTSTGSGYYADSVKGRFTISRDNAKNTVYLQMNSLKPEDTAVYYCAAKHQKGEIPYYDWGQGTQVTVSS
## Output 17.2

## Input // returns reported infectivity % under 10 ug/mL VHH treatment for input PP887 MBP-S1b-E7-H6 (VHH, Form: Monomer) VHH: QVQLVESGGGLVQPGGSLRLSCAASGGEFSDNGLHWFRQAPGKQREFVATASSDGSTQYRDSVKGRFTISRDNAKNTVYLQMNSLKPEDTAVYYCTALLMSSAGEYDVWGQGTQVTVSS
## Output 85.7
